system: IGROV1 complex spheroids (HUVEC, MSC), viability % test/control; assay: Anticancer human tumor IGROV1 cell line growth inhibition [GQUAD]; conditions: second compound 3.16 µM; first compound 3.16 µM; active compounds read low;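 further: spheroids exposed to compounds for 7 days before readout; 100% = DMSO vehicle control viability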
As shown below, each of these compounds has a reported viability, T/C value.
Quick note: give the figure in %, leave out the unit.

In the examples that follow, each entry is paired with its recorded viability, T/C.
COMPOUND	MEASURED QUANTITY	VALUE UNITS	OBSERVED MEASUREMENT
Nc1ccn(C2OC(CO)C(O)C2(F)F)c(=O)n1 (stereo unspecified) + Cc1[nH]c2ccc(F)cc2c1-c1nc2c3cccnc3c3ncccc3c2[nH]1	viability, T/C	%	4.02
CC1COCCN1c1cc(-c2ccnn2C)c2ccnc(-c3ccn[nH]3)c2n1 (stereo unspecified) + Cc1[nH]c2ccc(F)cc2c1-c1nc2c3cccnc3c3ncccc3c2[nH]1	viability, T/C	%	3.37
CCCS(=O)(=O)Nc1ccc(F)c(C(=O)c2c[nH]c3ncc(-c4ccc(Cl)cc4)cc23)c1F + CN(C)c1ccc(Nc2c3ccc(NC(=O)CCN4CCCC4)cc3nc3cc(NC(=O)CCN4CCCC4)ccc23)cc1	viability, T/C	%	67.4
O=c1[nH]cc(F)c(=O)[nH]1 + CN(C)c1ccc(Nc2c3ccc(NC(=O)CCN4CCCC4)cc3nc3cc(NC(=O)CCN4CCCC4)ccc23)cc1	viability, T/C	%	81
Cc1cccc(N(C)C(=O)C2C(O)CCN2c2nc(C)cc(C(F)(F)F)c2C#N)c1 (stereo unspecified) + CN(C)c1ccc(Nc2c3ccc(NC(=O)CCN4CCCC4)cc3nc3cc(NC(=O)CCN4CCCC4)ccc23)cc1	viability, T/C	%	71

Fill in: viability, T/C of CC(C)(O)C1CCC(Nc2ccc3ncc(-c4cccc(C(F)(F)F)c4)n3n2)CC1 (stereo unspecified) + CN(C)c1ccc(Nc2c3ccc(NC(=O)CCN4CCCC4)cc3nc3cc(NC(=O)CCN4CCCC4)ccc23)cc1 is ___
18.6

Fill in the blank: the reported viability, T/C of O=C(NO)c1cnc(N2CCN(S(=O)(=O)c3ccc4ccccc4c3)CC2)nc1 + Cc1[nH]c2ccc(F)cc2c1-c1nc2c3cccnc3c3ncccc3c2[nH]1 is ____.
0.05

Would you kindly share the measured viability, T/C for C=CC(=O)N1CCN(c2nc(=O)n(-c3c(C)ccnc3C(C)C)c3nc(-c4c(O)cccc4F)c(F)cc23)C(C)C1 (stereo unspecified) + Cc1[nH]c2ccc(F)cc2c1-c1nc2c3cccnc3c3ncccc3c2[nH]1 ?
4.45

Quick one: viability, T/C of C#Cc1c(F)ccc2cc(O)cc(-c3ncc4c(N5CC6CCC(C5)N6)nc(OCC56CCCN5CC(F)C6)nc4c3F)c12 (stereo unspecified) + Cc1[nH]c2ccc(F)cc2c1-c1nc2c3cccnc3c3ncccc3c2[nH]1 ?
2.86

Suppose we examine the compound COc1cc(C2c3cc4c(cc3C(OC3OC5COC(C)OC5C(O)C3O)C3COC(=O)C23)OCO4)cc(OC)c1O (stereo unspecified) + CN(C)c1ccc(Nc2c3ccc(NC(=O)CCN4CCCC4)cc3nc3cc(NC(=O)CCN4CCCC4)ccc23)cc1 ; what viability, T/C value has been reported?
9.22

What does the data say about its viability, T/C? Entry: C=CCn1c(=O)c2cnc(Nc3ccc(N4CCN(C)CC4)cc3)nc2n1-c1cccc(C(C)(C)O)n1 + Cc1cnc(CNC(=O)c2c(=O)c3ccc(N4CCCN(C)CC4)nc3n3c2sc2ccccc23)cn1
3.96

---

tested on: IGROV1 complex spheroids (HUVEC, MSC), viability % test/control; test: Anticancer human tumor IGROV1 cell line growth inhibition [GQUAD]; conditions: second compound 1 µM; first compound 10 µM; active compounds read low;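 further: spheroids exposed to compounds for 7 days before readout; 100% = DMSO vehicle control viability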
Entries whose viability, T/C is below 3% take Y; entries at or above 3% take N.

Solved cases (5 shown):
MOLECULE	ANSWER LABEL
C=CC(=O)N1CCN(c2nc(=O)n(-c3c(C)ccnc3C(C)C)c3nc(-c4c(O)cccc4F)c(F)cc23)C(C)C1 (stereo not given) + CN(C)c1ccc(Nc2c3ccc(NC(=O)CCN4CCCC4)cc3nc3cc(NC(=O)CCN4CCCC4)ccc23)cc1	N
CC1COCCN1c1cc(C2(O)CC3CCC(C2)O3)c2cnn(-c3ccn[nH]3)c2n1 (stereo not given) + Cc1[nH]c2ccc(F)cc2c1-c1nc2c3cccnc3c3ncccc3c2[nH]1	Y
C=CCn1c(=O)c2cnc(Nc3ccc(N4CCN(C)CC4)cc3)nc2n1-c1cccc(C(C)(C)O)n1 + CN(C)c1ccc(Nc2c3ccc(NC(=O)CCN4CCCC4)cc3nc3cc(NC(=O)CCN4CCCC4)ccc23)cc1	Y
O=C(NO)c1cnc(N2CCN(S(=O)(=O)c3ccc4ccccc4c3)CC2)nc1 + Cc1cnc(CNC(=O)c2c(=O)c3ccc(N4CCCN(C)CC4)nc3n3c2sc2ccccc23)cn1	Y
C=CC(=O)N1CCN(c2nc(=O)n(-c3c(C)ccnc3C(C)C)c3nc(-c4c(O)cccc4F)c(F)cc23)C(C)C1 (stereo not given) + Cc1cnc(CNC(=O)c2c(=O)c3ccc(N4CCCN(C)CC4)nc3n3c2sc2ccccc23)cn1	N

Please determine if O=C(c1cc(Cc2n[nH]c(=O)c3ccccc23)ccc1F)N1CCN(C(=O)C2CC2)CC1 + CN(C)c1ccc(Nc2c3ccc(NC(=O)CCN4CCCC4)cc3nc3cc(NC(=O)CCN4CCCC4)ccc23)cc1 is below 3% in terms of viability, T/C.
N

Determine whether this molecule shows viability, T/C lower than 3% (ties excluded): O=C(NO)c1cnc(N2CCN(S(=O)(=O)c3ccc4ccccc4c3)CC2)nc1 + CN(C)c1ccc(Nc2c3ccc(NC(=O)CCN4CCCC4)cc3nc3cc(NC(=O)CCN4CCCC4)ccc23)cc1
Y

---

test system: IGROV1 complex spheroids (HUVEC, MSC), viability % test/control; experiment: Anticancer human tumor IGROV1 cell line growth inhibition [GQUAD]; settings: second compound 10 µM; first compound 0.1 µM; active compounds read low;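 further: spheroids exposed to compounds for 7 days before readout; 100% = DMSO vehicle control viability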
This section presents molecules with their documented viability, T/C values.

Examples from the recorded data:
MOLECULE	OBSERVED MEASUREMENT
CC1COCCN1c1cc(-c2ccnn2C)c2ccnc(-c3ccn[nH]3)c2n1 (stereo unspecified) + Cc1[nH]c2ccc(F)cc2c1-c1nc2c3cccnc3c3ncccc3c2[nH]1	3.77%
Nc1ccn(C2OC(CO)C(O)C2(F)F)c(=O)n1 (stereo unspecified) + Cc1[nH]c2ccc(F)cc2c1-c1nc2c3cccnc3c3ncccc3c2[nH]1	4.69%
C=CC(=O)N1CCN(c2nc(=O)n(-c3c(C)ccnc3C(C)C)c3nc(-c4c(O)cccc4F)c(F)cc23)C(C)C1 (stereo unspecified) + Cc1cnc(CNC(=O)c2c(=O)c3ccc(N4CCCN(C)CC4)nc3n3c2sc2ccccc23)cn1	16.2%
O=c1[nH]cc(F)c(=O)[nH]1 + CN(C)c1ccc(Nc2c3ccc(NC(=O)CCN4CCCC4)cc3nc3cc(NC(=O)CCN4CCCC4)ccc23)cc1	58%
Cc1cccc(N(C)C(=O)C2C(O)CCN2c2nc(C)cc(C(F)(F)F)c2C#N)c1 (stereo unspecified) + CN(C)c1ccc(Nc2c3ccc(NC(=O)CCN4CCCC4)cc3nc3cc(NC(=O)CCN4CCCC4)ccc23)cc1	50.3%

Now for the molecule whose viability, T/C we want.
Request the reported viability, T/C associated with CCCS(=O)(=O)Nc1ccc(F)c(C(=O)c2c[nH]c3ncc(-c4ccc(Cl)cc4)cc23)c1F + Cc1cnc(CNC(=O)c2c(=O)c3ccc(N4CCCN(C)CC4)nc3n3c2sc2ccccc23)cn1
9.63%

---

test system: IGROV1 complex spheroids (HUVEC, MSC), viability % test/control; experiment: Anticancer human tumor IGROV1 cell line growth inhibition [GQUAD]; conditions: second compound 1 µM; first compound 10 µM; active compounds read low;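 further: spheroids exposed to compounds for 7 days before readout; 100% = DMSO vehicle control viability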
MEASURED QUANTITY: viability, T/C (%)
Kindly answer with a numeric value in %, unit omitted.

COMPOUND	viability, T/C [%]
CCCS(=O)(=O)Nc1ccc(F)c(C(=O)c2c[nH]c3ncc(-c4ccc(Cl)cc4)cc23)c1F + CN(C)c1ccc(Nc2c3ccc(NC(=O)CCN4CCCC4)cc3nc3cc(NC(=O)CCN4CCCC4)ccc23)cc1	13.2
COc1cccc2c1C(=O)c1c(O)c3c(c(O)c1C2=O)CC(O)(C(=O)CO)CC3OC1CC(N)C(O)C(C)O1 (stereo not given) + Cc1[nH]c2ccc(F)cc2c1-c1nc2c3cccnc3c3ncccc3c2[nH]1	0.52
CC(C)(O)C1CCC(Nc2ccc3ncc(-c4cccc(C(F)(F)F)c4)n3n2)CC1 (stereo not given) + CN(C)c1ccc(Nc2c3ccc(NC(=O)CCN4CCCC4)cc3nc3cc(NC(=O)CCN4CCCC4)ccc23)cc1	23
COc1cccc2c1C(=O)c1c(O)c3c(c(O)c1C2=O)CC(O)(C(=O)CO)CC3OC1CC(N)C(O)C(C)O1 (stereo not given) + Cc1cnc(CNC(=O)c2c(=O)c3ccc(N4CCCN(C)CC4)nc3n3c2sc2ccccc23)cn1	0.66

Note: attention shifts to another entry.
# lookup: viability, T/C of CC1COCCN1c1cc(C2(O)CC3CCC(C2)O3)c2cnn(-c3ccn[nH]3)c2n1 (stereo not given) + CN(C)c1ccc(Nc2c3ccc(NC(=O)CCN4CCCC4)cc3nc3cc(NC(=O)CCN4CCCC4)ccc23)cc1
1.58
